# Assay System: Delta-type opioid receptor (Mus musculus, UniProt P32300)
# Sequence (P32300 whole entry): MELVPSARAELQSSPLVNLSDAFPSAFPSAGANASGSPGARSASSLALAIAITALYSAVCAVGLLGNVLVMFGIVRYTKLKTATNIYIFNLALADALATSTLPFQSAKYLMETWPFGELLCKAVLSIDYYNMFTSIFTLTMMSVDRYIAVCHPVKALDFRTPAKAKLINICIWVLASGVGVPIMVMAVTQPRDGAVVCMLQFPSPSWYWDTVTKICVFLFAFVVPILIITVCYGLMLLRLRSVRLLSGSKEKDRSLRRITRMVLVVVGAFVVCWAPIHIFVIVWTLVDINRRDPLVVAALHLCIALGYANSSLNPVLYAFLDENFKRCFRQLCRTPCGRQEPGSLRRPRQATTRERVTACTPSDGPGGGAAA
# Run Description: Agonist activity at delta opioid receptor in mouse vas deferens assessed as inhibition of electrically-stimulated muscle contraction
# Assay type: functional, tissue-based
Measured IC50, listed per entry for reference.

- Smiles Record: "Cc1cc(O)cc(C)c1C[C@H](N)C(=O)N1CC(=O)N[C@@H](Cc2cnc[nH]2)C(=O)N[C@H](Cc2ccc3ccccc3c2)C(=O)N[C@@H](CCCNC(=N)N)C(=O)N[C@@H](Cc2c[nH]c3ccccc23)C(=O)N[C@H](C(=O)N[C@@H](CC(=O)O)C(=O)N[C@@H](Cc2ccccc2)C(N)=O)CSSC[C@@H](N)C1=O"
  IC50: "610 nM"
- Smiles Record: "CCCC[C@H](NC(=O)[C@H](Cc1c[nH]c2ccccc12)NC(=O)[C@H](CCCN=C(N)N)NC(=O)[C@@H](Cc1ccc2ccccc2c1)NC(=O)[C@H](Cc1cnc[nH]1)NC(=O)[C@H]1Cc2ccccc2CN1C(=O)[C@@H](N)Cc1c(C)cc(O)cc1C)C(=O)N[C@@H](CC(=O)O)C(=O)N[C@@H](Cc1ccccc1)C(N)=O"
  IC50: "130 nM"
- Smiles Record: "CCCC[C@H](NC(=O)[C@H](Cc1c[nH]c2ccccc12)NC(=O)[C@H](CCCNC(=N)N)NC(=O)[C@@H](Cc1ccc2ccccc2c1)NC(=O)[C@H](Cc1cnc[nH]1)NC(=O)[C@H](Cc1ccccc1)NC(=O)CNC(=O)[C@@H](C)NC(=O)[C@@H](N)Cc1ccc(O)cc1)C(=O)N[C@@H](CC(=O)O)C(=O)N[C@@H](Cc1ccccc1)C(N)=O"
  IC50: "60 nM"
